FYI, the data here is from the supplement of paper PMC12350171.

# growth AUC normalised to DMSO control per record follows
Test system: P. vulgatus WT;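 also: active when median AUC fell below 0.1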
ASSAY SUMMARY: growth AUC normalised to DMSO control (median) (fraction of control); higher = less growth inhibition, active = hit call of the paper
STUDY CONDITIONS: 20 µM
Counter-ions that a name gives are not always drawn.
METRIC: growth AUC normalised to DMSO control

>>> meas_value("C[C@@H]1C[C@H]2[C@@H]3C[C@H](F)C4=CC(=O)C=C[C@]4(C)[C@@]3(F)[C@@H](O)C[C@]2(C)[C@@]1(O)C(=O)CO")
1.02
>>> meas_value("CCCC1C(=O)N2C(N(C)C)=Nc3ccc(C)cc3N2C1=O (stereo unspecified)")
1
>>> meas_value("NC(=O)c1cnccn1 [Pyrazinamide]")
0.993
>>> meas_value("CC(C(=O)O)c1ccc2c(c1)CC(=O)c1ccccc1S2 (stereo unspecified)")
1.01
>>> meas_value("NC[C@@H]1O[C@H](O[C@H]2[C@@H](O)[C@H](O[C@@H]3[C@@H](O)[C@H](N)C[C@H](N)[C@H]3O[C@H]3O[C@H](CN)[C@@H](O)[C@H](O)[C@H]3N)O[C@@H]2CO)[C@H](N)[C@@H](O)[C@@H]1O [Neomycin sulfate]")
1.01
>>> meas_value("N[C@H](Cc1ccccc1)C(=O)O")
0.985
>>> meas_value("Cc1cc(NC(=O)C2=C(O)c3ccccc3S(=O)(=O)N2C)no1")
0.975
>>> meas_value("Cc1ccccc1C(OCCN(C)C)c1ccccc1 (stereo unspecified) [Orphenadrine hydrochloride]")
0.992
>>> meas_value("Nc1ccccc1S(N)(=O)=O [o-Sulfanilamide]")
1.01
>>> meas_value("c1ccc([C@H]2CN3CCSC3=N2)cc1 [Levamisole hydrochloride]")
1.01
>>> meas_value("COc1c(O)cc2c(c1O)[C@@H]1O[C@H](CO)[C@@H](O)[C@H](O)[C@H]1OC2=O")
1.01

====

# growth AUC normalised to DMSO control per record follows
Test system: Vibrio cholerae
ASSAY SUMMARY: growth AUC normalised to DMSO control (fraction of control); higher = less growth inhibition, active = hit call of the paper
STUDY CONDITIONS: 20 µM
Where a name gives a salt, the structure may show the parent alone.
METRIC: growth AUC normalised to DMSO control

>>> meas_value("COC1=CC(=O)C[C@@H](C)[C@]12Oc1c(Cl)c(OC)cc(OC)c1C2=O")
0.99
>>> meas_value("COC1=C(OC)C(=O)C(CCCCCCCCCCO)=C(C)C1=O")
0.989
>>> meas_value("COc1cnc(NS(=O)(=O)c2ccc(N)cc2)nc1")
1.01
>>> meas_value("CCCCCCC[N+](CC)(CC)CCCCc1ccc(Cl)cc1 [Clofilium tosylate]")
1.02
>>> meas_value("Cc1onc(-c2ccccc2Cl)c1C(=O)N[C@@H]1C(=O)N2[C@@H]1SC(C)(C)[C@@H]2C(=O)O [Cloxacillin sodium salt]")
0.99
>>> meas_value("CC(C)NCC(O)c1cc(O)cc(O)c1 (centres undefined) [Metaproterenol sulfate]")
0.998
>>> meas_value("CC(=O)OCC(=O)[C@@]12OC(C)(C)O[C@@H]1C[C@H]1[C@@H]3C[C@H](F)C4=CC(=O)C=C[C@]4(C)[C@@]3(F)[C@@H](O)C[C@@]12C [Fluocinonide]")
0.973
>>> meas_value("CN(C)CCOC(C)(c1ccccc1)c1ccccn1 (centres undefined) [Doxylamine succinate]")
1
>>> meas_value("COc1ccc2c(c1)C(=O)N(CCc1ccc(S(=O)(=O)NC(=O)NC3CCCCC3)cc1)C(=O)C2(C)C")
0.995
>>> meas_value("NC(=O)N1c2ccccc2C=Cc2ccccc21 [Carbamazepine]")
0.999
>>> meas_value("C[C@@H]1C[C@H]2[C@@H]3CCC4=CC(=O)C=C[C@]4(C)[C@@]3(Cl)[C@@H](O)C[C@]2(C)[C@@]1(OC(=O)c1ccco1)C(=O)CCl [Mometasone furoate]")
1.01
>>> meas_value("Nc1nc(=O)n([C@@H]2CS[C@H](CO)O2)cc1F [(-) Emtricitabine]")
0.993
>>> meas_value("CCN1CCCC1CNC(=O)c1cc(S(=O)(=O)CC)c(N)cc1OC (centres undefined) [Amisulpride]")
1.01
>>> meas_value("C[C@]12C=CC(=O)C=C1CC[C@H]1[C@@H]3C[C@@H](O)[C@](O)(C(=O)CO)[C@@]3(C)C[C@H](O)[C@@]12F")
1
